// reported cytotoxicity at 70.5 h for each item listed
# assayNotes: Human HepG2 cell viability assay in 384 well format
# Format: toxicity, cell-based
# Design: dose 125 nL, time 70.5 hour; concentration not given beside the values
# settings: HepG2 cells, read-out: Inhibition
Response body: numeric value in %, unit text excluded.

// known answers, use as guide
>  <molecule>
CN(C)CCN1CC[C@@H]2[C@@H]1CCN2C(=O)c1cccc(Cl)c1

>  <measurementLabel>
cytotoxicity at 70.5 h

>  <quantitativeResult>
-13.9

$$$$
>  <molecule>
CC(=O)N[C@H]1CCO[C@@H](c2cccc(NC(=O)c3ccc(=O)[nH]n3)c2)C1

>  <measurementLabel>
cytotoxicity at 70.5 h

>  <quantitativeResult>
24.6

$$$$
>  <molecule>
CCN(CC)c1nc2ccsc2c(=O)n1CCC(=O)NC1CCCC1

>  <measurementLabel>
cytotoxicity at 70.5 h

>  <quantitativeResult>
-6.51

$$$$
>  <molecule>
Cc1cnc(N2CCCn3c(nnc3CN(C)C(C)C)C2)nc1

>  <measurementLabel>
cytotoxicity at 70.5 h

>  <quantitativeResult>
-1.83

$$$$
>  <molecule>
CC(=O)NC1CCCN(C(=O)NCCOc2ccc3c(c2)OCO3)C1 (centres undefined)

>  <measurementLabel>
cytotoxicity at 70.5 h

>  <quantitativeResult>
-10.3

$$$$

Give the measured cytotoxicity at 70.5 h for O=C(c1cccc(=O)[nH]1)N(Cc1ccsc1)CC1CCCO1 (centres undefined)
5.57

Give the measured cytotoxicity at 70.5 h for FC(F)c1nnc2ccc(N3CCC4(CCCCC4)C3)nn12
-3.87

----------
// reported cytotoxicity at 70.5 h for each item listed
# assayNotes: Human HepG2 cell viability assay in 384 well format
# Type: toxicity, cell-based
# Set-up: dose 125 nL, time 70.5 hour; concentration not given beside the values
# settings: HepG2 cells, read-out: Inhibition
Response body: numeric value in %, unit text excluded.

Give the measured cytotoxicity at 70.5 h for CC(C)CN1C[C@H]2CCN(c3ncccn3)CC[C@H]2S1(=O)=O
-12.5

Give the measured cytotoxicity at 70.5 h for COc1ccccc1CNC(=O)CS(=O)(=O)Cc1ccccc1
-3.93

Give the measured cytotoxicity at 70.5 h for COC1COC2(CCN(S(=O)(=O)c3ccc(F)cc3)CC2)C1 (stereo unspecified)
17.1

Give the measured cytotoxicity at 70.5 h for CNC(=O)c1csc(-c2ccoc2)n1
-4.01

Give the measured cytotoxicity at 70.5 h for CCn1cc(S(=O)(=O)Nc2ccc3[nH]c(C4CCC4)nc3c2)cn1
24.1

Give the measured cytotoxicity at 70.5 h for O=C(COC1CCCC1)NCCc1nc(-c2ccccn2)cs1
-3.01

----------
# assayNotes: Human HepG2 cell viability assay in 384 well format
# Format: toxicity, cell-based
# Parameters: dose 125 nL, time 70.5 hour; concentration not given beside the values
# settings: HepG2 cells, read-out: Inhibition
measurementLabel: cytotoxicity at 70.5 h (%)
Response body: numeric value in %, unit text excluded.

>  <molecule>
Cc1cc(-c2cnc(C)nc2CN(C)C(=O)c2ccccn2)on1

>  <measurementLabel>
cytotoxicity at 70.5 h

>  <quantitativeResult>
-3.87

$$$$

Give the measured cytotoxicity at 70.5 h for COc1ccc(NC(=O)CN2CCCCC2C2OCCO2)cc1 (centres undefined)
-4.96

Give the measured cytotoxicity at 70.5 h for CCOCCN1CCN(Cc2nnc(-c3occc3C)o2)CC1CC (centres undefined)
-5.31

Give the measured cytotoxicity at 70.5 h for Cc1cc2c(=O)n3c(nc2s1)CCN(C(=O)c1sc(C)nc1C)CC3
-2.56

Give the measured cytotoxicity at 70.5 h for COc1c(CNC2CCN(CC(=O)NC3CC3)CC2)c(C)nn1C
2.59

Give the measured cytotoxicity at 70.5 h for O=C(CCc1ccsc1)Nc1cnccc1O
-6.71
